test system: Pseudomonas aeruginosa; experiment: Antimicrobial activity against Pseudomonas aeruginosa PAO1 by twofold macrodilution method; type: functional
observed-property: MIC (µg/mL)

[[record]]
compound = "NC[C@H]1O[C@H](O[C@H]2[C@H](O)[C@@H](O[C@H]3O[C@H](CO)[C@@H](O)[C@H](N)[C@H]3O)[C@H](N)C[C@@H]2N)[C@H](N)C[C@@H]1O [TOBRAMYCIN]"
recorded_value = 0.5

[[record]]
compound = "NCC[C@H](O)C(=O)N[C@@H]1C[C@H](N)[C@@H](O[C@H]2O[C@H](CN)[C@@H](O)[C@H](O)[C@H]2O)[C@H](O)[C@H]1O[C@H]1O[C@H](CO)[C@@H](O)[C@H](N)[C@H]1O [AMIKACIN]"
recorded_value = 2

[[record]]
compound = "CO[C@@H]1[C@@H](OC(N)=O)[C@@H](O)[C@H](Oc2ccc3c(O)c(NC(=O)c4ccc(O)c(CC=C(C)C)c4)c(=O)oc3c2C)OC1(C)C [NOVOBIOCIN]"
recorded_value = 512

[[record]]
compound = "CC1(C)S[C@@H]2[C@H](NC(=O)[C@H](C(=O)O)c3ccsc3)C(=O)N2[C@H]1C(=O)O [TICARCILLIN]"
recorded_value = 32


Reference for the values: ChEMBL document CHEMBL1649198
